Please provide measured pEC50 for the entries that follow.
- system.name: human soluble guanylate cyclase alpha 1 and beta 1 subunits (sGC) (Homo sapiens, UniProt Q02108+Q02153)
- Sequence (Q02108 1-690): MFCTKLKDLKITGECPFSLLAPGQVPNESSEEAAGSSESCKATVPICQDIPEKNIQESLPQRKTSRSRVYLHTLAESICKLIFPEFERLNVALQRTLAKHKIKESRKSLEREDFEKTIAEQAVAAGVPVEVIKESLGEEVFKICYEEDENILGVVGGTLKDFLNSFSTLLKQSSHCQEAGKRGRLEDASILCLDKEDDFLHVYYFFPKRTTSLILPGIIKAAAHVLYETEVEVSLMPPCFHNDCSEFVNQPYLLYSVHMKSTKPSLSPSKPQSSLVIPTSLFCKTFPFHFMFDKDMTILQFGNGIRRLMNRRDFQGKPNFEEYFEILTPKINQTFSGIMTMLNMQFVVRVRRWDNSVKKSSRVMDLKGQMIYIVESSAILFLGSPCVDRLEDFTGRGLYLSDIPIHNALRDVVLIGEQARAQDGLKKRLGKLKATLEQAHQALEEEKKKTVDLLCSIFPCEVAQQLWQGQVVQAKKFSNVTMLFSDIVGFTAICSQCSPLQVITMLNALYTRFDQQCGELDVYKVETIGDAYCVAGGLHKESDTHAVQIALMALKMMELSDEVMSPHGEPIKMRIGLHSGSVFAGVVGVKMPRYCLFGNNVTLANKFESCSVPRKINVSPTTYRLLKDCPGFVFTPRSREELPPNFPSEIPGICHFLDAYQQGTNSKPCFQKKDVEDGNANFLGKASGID
- Sequence (Q02153 1-619): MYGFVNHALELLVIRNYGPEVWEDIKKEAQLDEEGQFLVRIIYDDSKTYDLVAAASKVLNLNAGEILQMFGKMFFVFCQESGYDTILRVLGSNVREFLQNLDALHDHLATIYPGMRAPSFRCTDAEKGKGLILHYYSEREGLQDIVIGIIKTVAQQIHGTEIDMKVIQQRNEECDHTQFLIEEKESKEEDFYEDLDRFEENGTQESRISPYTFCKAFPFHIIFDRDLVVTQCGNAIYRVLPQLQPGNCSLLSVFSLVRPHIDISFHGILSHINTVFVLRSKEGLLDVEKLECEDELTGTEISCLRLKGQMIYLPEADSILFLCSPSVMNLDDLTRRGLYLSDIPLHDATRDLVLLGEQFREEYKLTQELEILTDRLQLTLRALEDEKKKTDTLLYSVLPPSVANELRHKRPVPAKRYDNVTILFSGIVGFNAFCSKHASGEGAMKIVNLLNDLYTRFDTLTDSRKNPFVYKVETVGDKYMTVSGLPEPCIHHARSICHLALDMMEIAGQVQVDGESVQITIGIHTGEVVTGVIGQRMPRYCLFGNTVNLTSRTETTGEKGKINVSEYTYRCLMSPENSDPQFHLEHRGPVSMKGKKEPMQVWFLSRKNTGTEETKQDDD
- method.description: sGC cellular activator assay (cGMP, HTRF)
- particulars: CHO cells stably expressing human sGC alpha 1/beta 1, preincubated with 40 microM ODQ; cGMP readout; assay run with and without 50% human serum, Table 2 does not say which
Bear in mind: pEC50 is minus log10 of a mol/L concentration; give just that figure.

Report pEC50, nothing else, for this compound: COc1c(C(=O)O)cnn1-c1cccc(-c2cccc(C)c2OCc2ccc3c(c2)CCN(CCS(C)(=O)=O)C3)n1 [Compound 74]
7.14

Report pEC50, nothing else, for this compound: COc1c(C(=O)O)cnn1-c1cccc(-c2cccc(C)c2OCc2cc(C)c3c(c2)CCN(C2COC2)C3)n1 [Compound 186]
7.80

Report pEC50, nothing else, for this compound: COc1c(C(=O)O)cnn1-c1cccc(-c2cccc(C)c2OCc2ccc3c(c2C)CCN([C@@H]2CCOC2)C3)n1 [Compound 106]
7.57

Report pEC50, nothing else, for this compound: CCOc1c(C(=O)O)cnn1-c1cccc(-c2cccc(C)c2OCc2ccc3c(c2)CCN([C@H]2CCOC2)C3)n1 [Compound 110]
7.35

Report pEC50, nothing else, for this compound: COc1c(C(=O)O)cnn1-c1cccc(-c2cccc(C)c2OCc2ccc3c(c2F)CCN([C@H]2CCOC2)C3)n1 [Compound 251]
8.15

Report pEC50, nothing else, for this compound: CCOc1c(C(=O)O)cnn1-c1cccc(-c2cccc(C)c2OCc2ccc3c(c2C)CCN(C(=O)C2CCOCC2)C3)n1 [Compound 147]
6.35

Report pEC50, nothing else, for this compound: CCOc1c(C(=O)O)cnn1-c1cccc(-c2cccc(C)c2OCc2ccc3c(c2C)CCN(CC2(F)COC2)C3)n1 [Compound 208]
7.70

Report pEC50, nothing else, for this compound: CCOc1c(C(=O)O)cnn1-c1cccc(-c2cccc(C)c2OCc2ccc3c(c2)OCCN(C2CCOCC2)C3)n1 [Compound 131]
6.39

Report pEC50, nothing else, for this compound: CCOc1c(C(=O)O)cnn1-c1cccc(-c2cccc(C)c2OCc2ccc3c(c2C)CCN(C[C@@H]2CCO2)CC3)n1 [Compound 228]
7.85

Report pEC50, nothing else, for this compound: CCc1cc(COc2c(C)cccc2-c2cccc(-n3ncc(C(=O)O)c3OC)n2)cc2c1CN(C1CCOCC1)CC2 [Compound 248]
8.38

Report pEC50, nothing else, for this compound: CCOc1c(C(=O)O)cnn1-c1cccc(-c2cccc(C)c2OCc2cc(C)c3c(c2)CCN(CC2(C)COC2)C3)n1 [Compound 200]
7.70

Report pEC50, nothing else, for this compound: COc1c(C(=O)O)cnn1-c1cccc(-c2cccc(C)c2OCc2cc(F)c3c(c2)CCN(C2CCOCC2)C3)n1 [Compound 201]
7.92

Report pEC50, nothing else, for this compound: CCOc1c(C(=O)O)cnn1-c1cccc(-c2cccc(C)c2OCc2ccc3c(c2)CCN(C2COC2)C3)n1 [Compound 6]
7.06

Report pEC50, nothing else, for this compound: CCOc1c(C(=O)O)cnn1-c1cccc(-c2cccc(C)c2OCc2ccc3c(c2)CCN(CC2CCOC(C)(C)C2)C3)n1 (centres unmarked) [Compound 80]
7.35
